// provenance: ChEMBL document CHEMBL4196142

# System: Leishmania amazonensis
# Assay Notes: Antileishmanial activity against stationary-phase Leishmania amazonensis MHOM/BR/75/LTB0016 promastigotes infected in human THP1-derived macrophages at apigenin to test compound ratio of 1:4 by serial dilution based light microscopic method
# Type: functional, organism-based
Property Label: EC50 (nM)

Compound: CCCCCCCCCCCCCCCCOP(=O)([O-])OCC[N+](C)(C)C [MILTEFOSINE]
Property Label: EC50
Numeric Value: 1130
